- TEST SYSTEM: Fuc(a1-2)Gal(b1-3)GlcNAc(b1-3)[Neu5Ac(a2-6)Gal(b1-4)GlcNAc(b1-6)]Gal(b1-4)Glc
- EXPERIMENT DESCRIPTION: glycan array binding signal (z-score within array); higher = stronger binding
- CONDITIONS USED: glycan notation: IUPAC condensed, linker removed
The sample as a whole holds a higher share of the strongest signals than the screen did.
For each record, write down the corresponding glycan array binding signal (z-score).

Lab note: Loc1 (Escherichia coli) (protein) APCALTNVGEQRGTYILKPLSMKGNLTAEKIENTGNIIECTDLQETTNAIKVHFLTQNALKFKVGSRHYIINFPFEYDGKKIELPGKSSYNLEEMLSAINFTIPYSIASVSDSSNTADIFPGTPFPLLFEIEVSSCTGNNTNCNSVRFNYNLNTILQVNLMTHHHHHH gave glycan array binding signal (z-score) of -0.102

Lab note: LecB PA14 (Pseudomonas aeruginosa) (protein) MATQGVFTLPANTQFGVTAFANSAGTQTVNVQVNNETVATFTGQSTNNAIIGSKVLNSGGGGKVQILVSVNGRSSDLVSAQVILANELNFALVGSEDSTDNDYNDAVVVINWPLG gave glycan array binding signal (z-score) of 0.308

Lab note: Epf (Streptococcus pyogenes) (protein) GDHGPEFNGVMVVKAAEAEELPDDLMNFKGTWEVSADGSSGRFFSKGATDSYVFHLIPAKDVKKPGWREHNEVKDSYIKIDKQSIAARYKTSTTAPYSVAFKVNTKSLIKDHDYKITFEQGQIASGITVDYRIGSAFNKTTDDSFKISDESKYASNVKIEGEEQGFKQREQGDKTISFRTLKEGPMSLVLLSKVEKKPQGDLDVEFKNLKIIDVTNPSQLDKGVAYVGNKNVQLTLKSDDGRTNFEGDEISLFNSRGELLQTVTVTKDQQNPISITLSEDQAKSLKNKEKLKVSIKQKQSKKTSKDFFFEVGIDPKVEAKQKEKLLELDKVKKQIEDSINGDAWLPEKPVDLQGDHGLSAWSHPQFEK gave glycan array binding signal (z-score) of 0.514

Lab note: 3FTT (Staphylococcus aureus), Q5HCZ5 (protein) MTEKEKMLAEKWYDANFDQYLINERARAKDICFELNHTRPSATNKRKELIDQLFQTTTDNVSISIPFDTDYGWNVKLGKNVYVNTNCYFMDGGQITIGDNVFIGPNCGFYTATHPLNFHHRNEGFEKAGPIHIGSNTWFGGHVAVLPGVTIGEGSVIGAGSVVTKDIPPHSLAVGNPCKVVRKIDNDLPSETLNDETIK gave glycan array binding signal (z-score) of -0.004

meta.source: the supplement of paper PMC8728848
